molecular target: BTK (Homo sapiens, UniProt Q06187); construct: endogenous in cells; host or cells: TMD-8 cells; test: BTK degradation in TMD-8 cells, HTRF assay after 6 h treatment; format: cell-based; settings: TMD8, maximum percentage of inhibition (degradation)
Sequence (Q06187 whole entry): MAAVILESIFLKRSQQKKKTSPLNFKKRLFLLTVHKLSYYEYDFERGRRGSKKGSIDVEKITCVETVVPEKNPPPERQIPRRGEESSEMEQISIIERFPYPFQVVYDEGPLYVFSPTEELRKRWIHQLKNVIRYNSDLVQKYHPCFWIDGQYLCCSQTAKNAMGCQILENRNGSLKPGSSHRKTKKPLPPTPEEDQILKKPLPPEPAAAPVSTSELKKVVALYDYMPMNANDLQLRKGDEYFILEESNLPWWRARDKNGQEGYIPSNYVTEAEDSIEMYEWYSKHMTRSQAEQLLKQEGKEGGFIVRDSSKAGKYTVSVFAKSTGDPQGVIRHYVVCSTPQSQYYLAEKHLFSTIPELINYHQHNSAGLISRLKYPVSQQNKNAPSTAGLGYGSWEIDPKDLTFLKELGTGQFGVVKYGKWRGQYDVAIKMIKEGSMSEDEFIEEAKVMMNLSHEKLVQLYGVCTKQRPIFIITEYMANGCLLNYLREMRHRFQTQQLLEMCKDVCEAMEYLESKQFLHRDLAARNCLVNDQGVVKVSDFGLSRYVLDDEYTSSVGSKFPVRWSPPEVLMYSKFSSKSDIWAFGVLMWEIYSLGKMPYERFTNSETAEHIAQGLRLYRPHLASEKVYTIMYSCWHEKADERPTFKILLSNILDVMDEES
Entries and their measured Dmax follow.
Your answer is read as %, so omit the unit and give the number.

Example entries begin here.
Cc1cc(-c2n[nH]c3ncc(-c4ccc(C5CCN(CCc6ccc(C7CCC(=O)NC7=O)c7ccccc67)CC5)cc4)cc23)ccc1CNC(=O)c1nc(C(C)(C)C)no1 (stereo not drawn) [Example 25] = 96.7
Cc1cc(-c2n[nH]c3ncc(-c4ccc(C5CCN(CCC6CCN(c7ccc(N8CCC(=O)NC8=O)c(Cl)c7)CC6)CC5)cc4)cc23)ccc1CNC(=O)c1nc(C(C)(C)C)no1 [Example 23] = 96

Could you now consider this next compound?
## Task Which Dmax value is on record for Cc1c(-c2n[nH]c3ncc(-c4ccc(C5CCN(CCc6ccc(C7CCC(=O)NC7=O)cc6)CC5)cc4)cc23)ccc(CNC(=O)c2nc(C(C)(C)C)no2)c1F (stereo not drawn) [Example 19] ?
## Result 92.8

* * *

target: BTK (Homo sapiens); construct: endogenous in cells; host or cells: TMD-8 cells; assay: BTK degradation in TMD-8 cells, HTRF assay after 6 h treatment; format: cell-based; settings: IC50 (DC50) of BTK degradation
measurementName: DC50 (nM)
The answer is to be given in nM; state only the numeric part.

Cc1cc(-c2n[nH]c3ncc(-c4ccc(N5CCN(CC6CCN(c7ccc(N8CCC(=O)NC8=O)cc7)CC6)CC5)cc4)cc23)ccc1CNC(=O)c1cnn(C(C)(C)C)c1 [Example 32] = 2.55

## Task What is its DC50 for BTK (Homo sapiens)? Entry: CC(C)(C)c1noc(C(=O)NCc2ccc(-c3n[nH]c4ncc(-c5ccc(C6CCN(CCC7CCN(c8ccc(N9CCC(=O)NC9=O)cc8)CC7)CC6)cc5)cc34)cc2F)n1 [Example 12]
## Result 5.17

## Task Please tell me: DC50 of Cc1cc(-c2n[nH]c3ncc(-c4ccc(N5CCN(CC6CCN(c7ccc(N8CCC(=O)NC8=O)cc7)CC6)CC5)cc4)cc23)ccc1[C@@H](C)NC(=O)c1nc(C2(C)CC2)no1 [Example 213] , system BTK (Homo sapiens)?
## Result 5.04

## Task Find the measured DC50: item Cc1cc(-c2n[nH]c3ncc(-c4ccc(N5CCN(CCc6ccc(C7CCC(=O)NC7=O)cc6)CC5)cc4)cc23)ccc1[C@@H](C)NC(=O)c1cn(C(C)(C)C)nn1 (some centres unmarked) [Example 125] , target or system BTK (Homo sapiens).
## Result 15.2

## Task For BTK (Homo sapiens), provide DC50 of Cc1cc(-c2n[nH]c3ncc(-c4ccc(N5CCN(CC6CCN(c7ccc(N8CCC(=O)NC8=O)cc7)CC6)CC5)cc4)cc23)c(F)cc1CNC(=O)c1noc(C(C)(C)C)n1 [Example 100] please.
## Result 10.2

## Task Under BTK (Homo sapiens): DC50 value of Cc1cc(-c2n[nH]c3ncc(-c4ccc(C5CCN(CCc6ccc(OC7CCC(=O)NC7=O)cc6)CC5)cc4)cc23)ccc1CNC(=O)c1nc(C(C)(C)C)no1 (centres unmarked) [Example 29] ?
## Result 3.2

## Task Record lookup: for BTK (Homo sapiens), what DC50 belongs to Cc1cc(-c2n[nH]c3ncc(-c4ccc(N5CCN(C6CC(c7ccc([C@H]8CCC(=O)NC8=O)cc7)C6)CC5)cc4)cc23)ccc1[C@@H](C)NC(=O)c1noc(C(C)(C)C)n1 (some centres unmarked) [Example 223] ?
## Result 1.56

## Task Record Cc1cc(-c2n[nH]c3ncc(-c4ccc(N5CCN(CC6CCN(c7ccc(N8CCC(=O)NC8=O)cc7)CC6)CC5)cc4)cc23)ccc1[C@@H](C)NC(=O)c1noc(C2(C)CC2)n1 [Example 109] : what is its DC50 with BTK (Homo sapiens)?
## Result 13.3

## Task State its DC50 on BTK (Homo sapiens): Cc1c(CNC(=O)c2noc(C(C)(C)C)n2)ccc(-c2n[nH]c3ncc(-c4ccc(C5CCN(CC6CCN(c7ccc(N8CCC(=O)NC8=O)cc7)CC6)CC5)cc4)cc23)c1F [Example 221]
## Result 1.12

## Task # get_value(readout= DC50, system= BTK (Homo sapiens)) for Cc1cc(-c2n[nH]c3ncc(-c4ccc(C5(C)CCN(CC6CCN(c7ccc(N8CCC(=O)NC8=O)cc7)CC6)CC5)cc4)cc23)ccc1[C@@H](C)NC(=O)c1noc(C(C)(C)C)n1 [Example 210]
## Result 5.98

* * *

log10 DC50 values by entry
molecular target: BTK (Homo sapiens); construct: endogenous in cells; host or cells: TMD-8 cells; assay: BTK degradation in TMD-8 cells, HTRF assay after 6 h treatment; type: cell-based; conditions: IC50 (DC50) of BTK degradation
Transform log10 | Measure DC50 | Unit nM

Example entries begin here.
Cc1cc(-c2n[nH]c3ncc(-c4ccc(N5CCN(CCOc6cccc7c6C(=O)N([C@@H]6CCC(=O)NC6=O)C7)CC5)cc4)cc23)ccc1[C@@H](C)NC(=O)c1nc(C(C)(C)C)no1 = 0.48
Cc1cc(-c2n[nH]c3ncc(-c4ccc(N5CCN(CCc6ccc([C@@H]7CCC(=O)NC7=O)cc6)CC5)cc4)cc23)ccc1[C@@H](C)NC(=O)c1noc(C(C)(C)C)n1 = 0.25
Cc1cc(-c2n[nH]c3ncc(-c4ccc(C5(C)CCN(C6CC(c7ccc(C8CCC(=O)NC8=O)cc7)C6)CC5)cc4)cc23)ccc1[C@@H](C)NC(=O)c1noc(C(C)(C)C)n1 (stereo partly shown) = 1.13
Cc1cc(-c2n[nH]c3ncc(-c4ccc(N5CCN(CC6CCN(c7ccc(N8CCC(=O)NC8=O)cc7)CC6)CC5)nc4)cc23)ccc1CNC(=O)c1noc(C(C)(C)C)n1 = 0.88

## Task // query log10 DC50 value for entry Cc1cc(CCN2CCN(c3ccc(-c4cnc5[nH]nc(-c6ccc([C@@H](C)NC(=O)c7noc(C(C)(C)C)n7)c(CO)c6)c5c4)cc3)CC2)ncc1C1CCC(=O)NC1=O (stereo partly shown)
## Result 0.20

## Task # log10 DC50 lookup, item `CC(C)(C)c1noc(C(=O)NCc2ccc(-c3n[nH]c4ncc(-c5ccc(C6CCN(CCc7ccc(N8CCC(=O)NC8=O)cc7)CC6)cc5)cc34)cc2F)n1`
## Result 1.41

## Task So what does the record say about log10 DC50 for Cc1cc(CCN2CCN(c3ccc(-c4cnc5[nH]nc(-c6ccc([C@@H](C)NC(=O)c7noc(C(C)(C)C)n7)c(C)c6F)c5c4)cc3)CC2)ncc1C1CCC(=O)NC1=O (stereo partly shown) ?
## Result 0.26

## Task So what does the record say about log10 DC50 for Cc1cc(-c2n[nH]c3ncc(-c4ccc(N5CCN(CCc6ccc(C7CCC(=O)NC7=O)cc6)CC5)cc4)cc23)ccc1[C@@H](C)NC(=O)c1nc(C(C)(C)C)no1 (stereo partly shown) ?
## Result 0.59

## Task Item under review: `COc1cc(OCCCN2CCN(c3ccc(-c4cnc5[nH]nc(-c6ccc([C@@H](C)NC(=O)c7nc(C(C)(C)C)no7)c(C)c6)c5c4)cc3)CC2)ccc1N1CCC(=O)NC1=O` . Reported log10 DC50?
## Result 0.91

## Task Sample Cc1cc(-c2n[nH]c3ncc(-c4ccc(N5CCN(CCn6cc(C7CCC(=O)NC7=O)cn6)CC5)cc4)cc23)ccc1[C@@H](C)NC(=O)c1noc(C(C)(C)C)n1 (stereo partly shown) — what was its log10 DC50?
## Result 0.21

* * *

Catalogue of DC50 values
target: BTK (Homo sapiens); construct: endogenous in cells; host or cells: TMD-8 cells; assay: BTK degradation in TMD-8 cells, HTRF assay after 6 h treatment; assay type: cell-based; settings: IC50 (DC50) of BTK degradation
Give your result in nM as a bare value.

Example molecules with recorded DC50:
Cc1cc(-c2n[nH]c3ncc(-c4ccc(N5CCC(COc6ccc(N7CCC(=O)NC7=O)cc6)CC5)cc4)cc23)ccc1[C@@H](C)NC(=O)c1noc(C(C)(C)C)n1 = 9.56
Cc1cc(CCN2CCN(c3ccc(-c4cnc5[nH]nc(-c6ccc([C@@H](C)NC(=O)c7noc(C(C)(C)C)n7)c(C)c6)c5c4)cc3)CC2)ccc1C1CCC(=O)NC1=O (stereo partly drawn) = 7.32

Attention now shifts to the item below.
## Task I am curious: what DC50 value has been reported for `Cc1cc(-c2n[nH]c3ncc(-c4ccc(N5CCN(CCc6ccc([C@H]7CCC(=O)NC7=O)c(F)c6)CC5)cn4)cc23)ccc1[C@@H](C)NC(=O)c1noc(C(C)(C)C)n1` ?
## Result 1.24

* * *

molecular target: BTK (Homo sapiens); construct: endogenous in cells; host or cells: TMD-8 cells; assay: BTK degradation in TMD-8 cells, HTRF assay after 6 h treatment; type: cell-based; conditions: IC50 (DC50) of BTK degradation
measurementName: DC50 (nM)
The response must be a number in nM with no trailing unit.

Cc1cc(-c2n[nH]c3ncc(-c4ccc(N5CCN(CCc6ccc(C7CCC(=O)NC7=O)cc6)CC5)cn4)cc23)ccc1[C@@H](C)NC(=O)c1noc(C(C)(C)C)n1 (some centres unmarked) = 1.05
Cc1cc(-c2n[nH]c3ncc(-c4ccc(N5CCN(CC6CCN(c7ccc(N8CCC(=O)NC8=O)cc7)CC6)CC5)cc4)cc23)ccc1[C@@H](C)NC(=O)c1noc(C2(CO)CC2)n1 = 14
Cc1cc(-c2n[nH]c3ncc(-c4ccc(N5CCN(CCc6ccc([C@H]7CCC(=O)NC7=O)cc6)CC5)cc4)cc23)ccc1[C@@H](C)NC(=O)c1noc(C(C)(C)C)n1 = 4.93
Cc1cc(-c2n[nH]c3ncc(-c4ccc(C5CCN(CCc6ccc([C@@H]7CCC(=O)NC7=O)cc6)CC5)nc4)cc23)ccc1[C@@H](C)NC(=O)c1noc(C(C)(C)C)n1 = 11.8

## Task Value lookup for DC50; key = Cc1nc(CCN2CCN(c3ccc(-c4cnc5[nH]nc(-c6ccc([C@@H](C)NC(=O)c7nc(C(C)(C)C)no7)c(CO)c6)c5c4)cc3)CC2)ccc1C1CCC(=O)NC1=O (some centres unmarked)
## Result 3.47

## Task May I ask what DC50 has been recorded for `Cc1cc(-c2n[nH]c3ncc(-c4ccc(N5CCN(CC6CCN(c7ccc(N8CCC(=O)NC8=O)cc7)CC6)CC5)cc4)cc23)ccc1CNC(=O)c1noc(C2(C(F)(F)F)CC2)n1` ?
## Result 22.8

## Task Using the record for Cc1cc(-c2n[nH]c3ncc(-c4ccc(N5CCN(C6CCN(c7ccc(NC8CCC(=O)NC8=O)cc7)CC6)CC5)cc4)cc23)ccc1[C@@H](C)NC(=O)c1noc(C(C)(C)C)n1 (some centres unmarked) , report its DC50.
## Result 4.81

## Task Need DC50 of `Cc1cc(-c2n[nH]c3ncc(-c4ccc(N5CCN(CCc6ccc([C@@H]7CCC(=O)NC7=O)c(F)c6)CC5)cn4)cc23)ccc1[C@@H](C)NC(=O)c1noc(C(C)(C)C)n1` , thanks.
## Result 11.8

## Task GET /values?readout=DC50&item= `Cc1cc(-c2n[nH]c3ncc(-c4ccc(N5CCN(CC6CCN(c7ccc(N8CCC(=O)NC8=O)c(C)c7)CC6)CC5)cc4)cc23)ccc1[C@@H](C)NC(=O)c1noc(C2(CO)CC2)n1`
## Result 16.2

## Task Form field: reported DC50 of Cc1cc(-c2n[nH]c3ncc(-c4ccc(N5CCN(CCC6CCN(c7ccc(C8CCC(=O)NC8=O)c(F)c7)CC6)CC5)cc4)cc23)ccc1CNC(=O)c1noc(C(C)(C)C)n1 (centres unmarked)
## Result 4.76

## Task Given `Cc1cc(-c2n[nH]c3ncc(-c4ccc(C5CCN(CC6CCN(c7ccc(N8CCC(=O)NC8=O)cc7)CC6)CC5)nc4)cc23)ccc1[C@@H](C)NC(=O)c1noc(C(C)(C)C)n1` , state its recorded DC50.
## Result 4.03

## Task Which DC50 is listed for Cc1cc(-c2n[nH]c3ncc(-c4ccc(N5CCN(CCc6ccc(NC7CCC(=O)NC7=O)cc6)CC5)cc4)cc23)ccc1[C@@H](C)NC(=O)c1noc(C(C)(C)C)n1 (some centres unmarked) ?
## Result 5.9
